Hello, the source for this data is paper PMC8659243, in case you need it.

Test system: HSC-4 cells
Assay: Cytotoxicity against HSC-4 cells, MTT method, 48 h
Format: cell-based, human
Settings: Homo sapiens, HSC-4; concentration required to kill 50% of the cells; 48 h, MTT; read-out: CC50 HSC-4
CC50 by entry:
Write it as a number; the unit nM goes unstated.

Cc1ccc(/C=C2\CN(C(=O)CC[N+]3(C)CCC(=NO)CC3)C/C(=C\c3ccc(C)cc3)C2=O)cc1 (stereo not shown) ... 400

Which measured CC50 value corresponds to O=C1/C(=C/c2ccc(Cl)cc2)CN(C(=O)CCN2CCC(=NO)CC2)C/C1=C\c1ccc(Cl)cc1 ? 180

Which measured CC50 value corresponds to C[N+]1(CCC(=O)N2C/C(=C\c3ccc([N+](=O)[O-])cc3)C(=O)/C(=C/c3ccc([N+](=O)[O-])cc3)C2)CCC(=NO)CC1 (stereo not shown) ? 60

Which measured CC50 value corresponds to COc1cc(/C=C2\CN(C(=O)CCN3CCC(=NO)CC3)C/C(=C\c3cc(OC)c(OC)c(OC)c3)C2=O)cc(OC)c1OC ? 300

Which measured CC50 value corresponds to COc1cc(/C=C2\CN(C(=O)CC[N+]3(C)CCC(=NO)CC3)C/C(=C\c3cc(OC)c(OC)c(OC)c3)C2=O)cc(OC)c1OC (stereo not shown) ? 180

Which measured CC50 value corresponds to O=C1/C(=C/c2ccc(Cl)c(Cl)c2)CN(C(=O)CCN2CCC(=NO)CC2)C/C1=C\c1ccc(Cl)c(Cl)c1 ? 70

Which measured CC50 value corresponds to COc1ccc(/C=C2\CN(C(=O)CCN3CCC(=NO)CC3)C/C(=C\c3ccc(OC)cc3)C2=O)cc1 ? 650
